# melting point listing for each entry below
OUTCOME MEASURE: melting point

[[record]]
compound = "Cc1[nH]c(-c2ccccc2)c(NC(=O)CN2C(=O)c3ccccc3C2=O)c1C(=O)c1ccccc1"
observed_value = "288 to 290 °C"

[[record]]
compound = "CCOC(=O)c1cc(S)n2nc(C)nc2n1"
observed_value = "234 to 236 °C"

[[record]]
compound = "CC(c1ccc2c(c1)Cc1ccccc1-2)n1ccnn1 (stereo not given)"
observed_value = "160 to 162 °C"

[[record]]
compound = "COC(=O)c1ccc(NC(=O)c2cc(C(C)C)c(C(C)C)o2)cc1Cl"
observed_value = "123 to 124 °C"

[[record]]
compound = "CC(=O)OCC(C(OC(C)=O)c1ccc(Br)cc1)[N+](=O)[O-] (stereo not given)"
observed_value = "81 to 82 °C"

[[record]]
compound = "CCN(C(=O)C(=O)O)c1ccc2c(C)cc(=O)oc2c1"
observed_value = "142 °C"

[[record]]
compound = "CC(C)N1C(=O)NC(c2ccccc2)c2cc3c(cc21)OCO3 (stereo not given)"
observed_value = "165 to 168 °C"

[[record]]
compound = "COC(=O)C1(CC(N)=O)C(=O)N(C)C(=O)c2ccc(Cl)cc21 (stereo not given)"
observed_value = "220 to 222 °C"

[[record]]
compound = "CCCO/N=C(\\C(=O)OC)c1csc(NC(=O)CCl)n1"
observed_value = "86 to 87 °C"

[[record]]
compound = "COC(=O)c1ccc2c(c1)S(=O)(=O)c1ccccc1N=C2"
observed_value = "181 to 182 °C"

